All values here come from patent US7417156B2.

System: UACC-257
Assay: NCI 60 cell line panel screen (SRB)
Assay type: cell-based, human
Conditions: UACC-257 (Melanoma); TGI: PG=0
The molecules listed here are annotated with their Log10TGI50.
Number in log10M, nothing else.

Some solved cases for reference:
# Molecule, Log10TGI50, log10M
data = [
    ("CC1CCC2C(C)C(CC(O)(CO)CC3OC4OC5(C)CCC6C(C)CCC(C3C)C46OO5)OC3OC4(C)CCC1C32OO4 (centres unmarked)", "−4.90"),
    ("CC1CCC2C(C)C(CC(CO)CC3OC4OC5(C)CCC6C(C)CCC(C3C)C46OO5)OC3OC4(C)CCC1C32OO4 (centres unmarked)", "−4.71"),
]

Given CC(=O)O[C@H]1C(=O)[C@@]2(C)[C@H]([C@H](OC(=O)c3ccccc3)[C@]3(O)C[C@H](OC(=O)[C@H](O)[C@@H](NC(=O)c4ccccc4)c4ccccc4)C(C)=C1C3(C)C)[C@]1(OC(C)=O)CO[C@@H]1C[C@@H]2O [Paclitaxel, paclitaxel, reference compound] , state its recorded Log10TGI50.
−4.52

----------
System: UACC-257
Assay: NCI 60 cell line panel screen (SRB)
Assay type: cell-based, human
Settings: UACC-257 (Melanoma); LC50: PG=−50
Readout Type: Log10LC50

# Compound, Log10LC50
measured = [
    ("CC1CCC2C(C)C(CC(CO)CC3OC4OC5(C)CCC6C(C)CCC(C3C)C46OO5)OC3OC4(C)CCC1C32OO4 (stereo not drawn)", "−4.30 log10M"),
    ("CC(=O)O[C@H]1C(=O)[C@@]2(C)[C@H]([C@H](OC(=O)c3ccccc3)[C@]3(O)C[C@H](OC(=O)[C@H](O)[C@@H](NC(=O)c4ccccc4)c4ccccc4)C(C)=C1C3(C)C)[C@]1(OC(C)=O)CO[C@@H]1C[C@@H]2O [Paclitaxel, paclitaxel, reference compound]", "−4.03 log10M"),
    ("C[C@@H]1CC[C@H]2[C@@H](C)C(CC(O)(CC3OC4O[C@]5(C)CC[C@H]6[C@H](C)CC[C@@H]([C@H]3C)C46OO5)c3ccc(C(=O)O)cc3)OC3O[C@]4(C)CCC1C32OO4 (stereo partly drawn) [Compound 11b]", ">−4.30 log10M"),
    ("CC1CCC2C(C)C(CC(COC(=O)CCC(=O)O)CC3OC4OC5(C)CCC6C(C)CCC(C3C)C46OO5)OC3OC4(C)CCC1C32OO4 (stereo not drawn) [Compound 8a, bis-trioxane primary succinate monoester]", ">−4.30 log10M"),
    ("C[C@@H]1CC[C@H]2[C@@H](C)C(CC(O)(COC(=O)CCC(=O)O)CC3OC4O[C@]5(C)CC[C@H]6[C@H](C)CC[C@@H]([C@H]3C)C46OO5)OC3O[C@]4(C)CCC1C32OO4 (stereo partly drawn) [Compound 9, tertiary alcohol primary succinate ester]", ">−4.30 log10M"),
]

Given CC1CCC2C(C)C(CC(COC(=O)c3cc[n+]([O-])cc3)CC3OC4OC5(C)CCC6C(C)CCC(C3C)C46OO5)OC3OC4(C)CCC1C32OO4 (stereo not drawn) , state its recorded Log10LC50.
>−4.30 log10M

----------
The compounds listed here are annotated with their Log10GI50.
Test system: NCI-H23
Assay: NCI 60 cell line panel screen (SRB)
Format: cell-based, human
Details: Non-Small Cell Lung Cancer, NCI-H23
In your answer, state the number alone without any accompanying words.

# Compound, Log10GI50
measured = [
    ("CC1CCC2C(C)C(CC(O)(CO)CC3OC4OC5(C)CCC6C(C)CCC(C3C)C46OO5)OC3OC4(C)CCC1C32OO4 (centres unmarked)", "−4.83"),
]

Which measured Log10GI50 belongs to CC1CCC2C(C)C(CC(CO)CC3OC4OC5(C)CCC6C(C)CCC(C3C)C46OO5)OC3OC4(C)CCC1C32OO4 (centres unmarked) , tested on NCI-H23?
−7.84

----------
Test system: T-47D
Assay: NCI 60 cell line panel screen (SRB)
Format: cell-based, human
Details: T-47D (Breast Cancer); LC50: PG=−50
Readout Type: Log10LC50

# Molecule, Log10LC50
records = [
    ("CC(=O)O[C@H]1C(=O)[C@@]2(C)[C@H]([C@H](OC(=O)c3ccccc3)[C@]3(O)C[C@H](OC(=O)[C@H](O)[C@@H](NC(=O)c4ccccc4)c4ccccc4)C(C)=C1C3(C)C)[C@]1(OC(C)=O)CO[C@@H]1C[C@@H]2O [Paclitaxel, paclitaxel, reference compound]", ">−4.00 log10M"),
    ("CC1CCC2C(C)C(CC(O)(CO)CC3OC4OC5(C)CCC6C(C)CCC(C3C)C46OO5)OC3OC4(C)CCC1C32OO4 (stereo not drawn)", ">−4.00 log10M"),
]

Now, please, on to the next molecule.
Given CC1CCC2C(C)C(CC(CO)CC3OC4OC5(C)CCC6C(C)CCC(C3C)C46OO5)OC3OC4(C)CCC1C32OO4 (stereo not drawn) , state its recorded Log10LC50.
−4.17 log10M

----------
The compounds listed here are annotated with their Log10GI50.
System: SN12C
Assay: NCI 60 cell line panel screen (SRB)
Format: cell-based, human
Conditions: Renal Cancer, SN12C
In your answer, state the number alone without any accompanying words.

Some solved cases for reference:
# Compound, Log10GI50
data = [
    ("CC(=O)O[C@H]1C(=O)[C@@]2(C)[C@H]([C@H](OC(=O)c3ccccc3)[C@]3(O)C[C@H](OC(=O)[C@H](O)[C@@H](NC(=O)c4ccccc4)c4ccccc4)C(C)=C1C3(C)C)[C@]1(OC(C)=O)CO[C@@H]1C[C@@H]2O [Paclitaxel, paclitaxel, reference compound]", "−9.53"),
    ("CC1CCC2C(C)C(CC(CO)CC3OC4OC5(C)CCC6C(C)CCC(C3C)C46OO5)OC3OC4(C)CCC1C32OO4 (centres unmarked)", "−7.46"),
    ("CC1CCC2C(C)C(CC(O)(CO)CC3OC4OC5(C)CCC6C(C)CCC(C3C)C46OO5)OC3OC4(C)CCC1C32OO4 (centres unmarked)", "−7.60"),
]

Given `C[C@@H]1CC[C@H]2[C@@H](C)C(=O)O[C@@H]3O[C@]4(C)CC[C@@H]1[C@]32OO4` , state its recorded Log10GI50.
−4.21

----------
The compounds listed here are annotated with their Log10TGI50.
Tested on: NCI-H23
Test: NCI 60 cell line panel screen (SRB)
Assay type: cell-based, human
Conditions: NCI-H23 (Non-Small Cell Lung Cancer); TGI: PG=0
Number in log10M, nothing else.

# Compound, Log10TGI50, log10M
rows = [
    ("CC1CCC2C(C)C(CC(O)(CO)CC3OC4OC5(C)CCC6C(C)CCC(C3C)C46OO5)OC3OC4(C)CCC1C32OO4 (centres unmarked)", "−4.26"),
]

Given C[C@@H]1CC[C@H]2[C@@H](C)C(CC(O)(CC3OC4O[C@]5(C)CC[C@H]6[C@H](C)CC[C@@H]([C@H]3C)C46OO5)c3ccc(C(=O)O)cc3)OC3O[C@]4(C)CCC1C32OO4 (some centres unmarked) [Compound 11b] , state its recorded Log10TGI50.
−4.63

Check CC1CCC2C(C)C(CC(COC(=O)c3cc[n+]([O-])cc3)CC3OC4OC5(C)CCC6C(C)CCC(C3C)C46OO5)OC3OC4(C)CCC1C32OO4 (centres unmarked) too.
−5.17

Check C[C@@H]1CC[C@H]2[C@@H](C)C(CC(O)(COC(=O)CCC(=O)O)CC3OC4O[C@]5(C)CC[C@H]6[C@H](C)CC[C@@H]([C@H]3C)C46OO5)OC3O[C@]4(C)CCC1C32OO4 (some centres unmarked) [Compound 9, tertiary alcohol primary succinate ester] too.
−4.65

Check CC1CCC2C(C)C(CC(O)(CC3OC4OC5(C)CCC6C(C)CCC(C3C)C46OO5)CS(=O)(=O)c3ccc(C(=O)O)cc3)OC3OC4(C)CCC1C32OO4 (centres unmarked) [Compound 10c] too.
−5.25

----------
System: EKVX
Experiment: NCI 60 cell line panel screen (SRB)
Format: cell-based, human
Conditions: EKVX (Non-Small Cell Lung Cancer); LC50: PG=−50
The compounds listed here are annotated with their Log10LC50.

Some solved cases for reference:
# Compound, Readout Type, Recorded Result
rows = [
    ("CC1CCC2C(C)C(CC(COC(=O)CCC(=O)O)CC3OC4OC5(C)CCC6C(C)CCC(C3C)C46OO5)OC3OC4(C)CCC1C32OO4 (stereo not drawn) [Compound 8a, bis-trioxane primary succinate monoester]", "Log10LC50", ">−4.30 log10M"),
    ("C[C@@H]1CC[C@H]2[C@@H](C)C(CC(O)(CC3OC4O[C@]5(C)CC[C@H]6[C@H](C)CC[C@@H]([C@H]3C)C46OO5)c3ccc(C(=O)O)cc3)OC3O[C@]4(C)CCC1C32OO4 (stereo partly drawn) [Compound 11b]", "Log10LC50", ">−4.30 log10M"),
]

Given CC1CCC2C(C)C(CC(CO)CC3OC4OC5(C)CCC6C(C)CCC(C3C)C46OO5)OC3OC4(C)CCC1C32OO4 (stereo not drawn) , state its recorded Log10LC50.
−4.36 log10M
